# IC50 against Melatonin receptor type 1A (Homo sapiens, UniProt P48039), merged from multiple literature sources
# Sequence (P48039 whole entry): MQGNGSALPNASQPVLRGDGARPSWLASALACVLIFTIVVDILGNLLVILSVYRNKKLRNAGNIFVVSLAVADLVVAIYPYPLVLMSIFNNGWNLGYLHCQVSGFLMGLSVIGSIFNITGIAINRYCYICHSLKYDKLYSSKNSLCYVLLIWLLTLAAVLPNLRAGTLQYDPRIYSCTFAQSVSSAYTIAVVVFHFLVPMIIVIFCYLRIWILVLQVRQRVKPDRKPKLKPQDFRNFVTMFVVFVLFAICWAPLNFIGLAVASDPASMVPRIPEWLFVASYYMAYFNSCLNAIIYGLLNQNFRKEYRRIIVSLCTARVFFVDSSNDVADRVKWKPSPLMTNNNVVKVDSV
Property: IC50 (nM)

a = COC(=O)Nc1ccc2cccc(CCNC(C)=O)c2c1
b = COc1ccc2c(c1)C(N1CCN(C(=O)C(C)C)CC1)CC2 (stereo unspecified)
c = COc1cc2c(cc1OC)C(CC(c1ccccc1)c1ccccc1)N(C=O)CC2 (stereo unspecified)
Query block: Order by IC50, smallest first, the items presented above. Use the labels to give the ranking in the order requested.
Result block: a, b, c

* * *

# IC50 against Melatonin receptor type 1A (Homo sapiens, UniProt P48039), merged from multiple literature sources

Please review the following examples before continuing.
COc1ccc2c(c1)[C@H](N1CCN(C(=O)C(C)C)CC1)CC2 = 116 nM
COc1ccc2c(c1)C(N1CCN(C(=O)C3CC3)CC1)CC2 (configuration not stated) = 156 nM
COc1ccc2c(c1)CCN(C(C)=O)C2CC(c1ccccc1)c1ccccc1 (configuration not stated) = > 1000 nM
CC(=O)NCCc1cccc2ccc(S(N)(=O)=O)cc12 = 310 nM
CC(=O)N1CCc2ccccc2C1CC(c1ccccc1)c1ccccc1 (configuration not stated) = > 1000 nM
COc1cc2c(cc1OC)C(CCc1ccccc1)N(C(N)=O)CC2 (configuration not stated) = > 1000 nM
COC(=O)N1CCc2cc(OC)c(OC)cc2C1CC(c1ccccc1)c1ccccc1 (configuration not stated) = 673 nM
COc1ccc(F)c(CN2CCN(C(=O)C(C)C)CC2)c1 = > 1000 nM
CNS(=O)(=O)c1ccc2cccc(CCNC(=O)c3ccco3)c2c1 = 2610 nM
COc1cc2c(cc1OC)C(CC(c1ccccc1)c1ccccc1)N(C(=O)c1ccccc1)CC2 (configuration not stated) = > 1000 nM

Query block: Which IC50 value is on record for CCCC(=O)N1CCc2cc(OC)c(OC)cc2C1CC(c1ccccc1)c1ccccc1 (configuration not stated) ?
Result block: > 1000 nM

Query block: Ok, now COc1ccc2cccc(N3CCN(C(=O)C4CC4)CC3)c2c1
Result block: > 1000 nM

Query block: Ok, now CCNC(=O)N1CCN([C@H]2CCc3ccc(OC)cc32)CC1
Result block: > 1000 nM

Query block: Ok, now COc1cc2c(c(OC)c1)C(CC(c1ccccc1)c1ccccc1)N(C(C)=O)CC2 (configuration not stated)
Result block: > 1000 nM

Query block: Ok, now COc1cc2c(cc1OC)C(CC(c1ccccc1)c1ccccc1)N(C(=O)C(F)(F)F)CC2 (configuration not stated)
Result block: > 1000 nM

Query block: Ok, now COc1cc2c(cc1OC)C(CCc1ccccc1)N(C(C)=O)CC2 (configuration not stated)
Result block: > 1000 nM

Query block: Ok, now COc1ccc2c(c1)C(CC(c1ccccc1)c1ccccc1)N(C(C)=O)CC2 (configuration not stated)
Result block: 512 nM
